- target system: T1, monomeric human TNFR2 extracellular domain (human, UniProt P20333 23-257)
- T1 construct: extracellular domain; Analyte in the Octet experiments; also called human TNFR2 ECD
- T1 sequence (looked up): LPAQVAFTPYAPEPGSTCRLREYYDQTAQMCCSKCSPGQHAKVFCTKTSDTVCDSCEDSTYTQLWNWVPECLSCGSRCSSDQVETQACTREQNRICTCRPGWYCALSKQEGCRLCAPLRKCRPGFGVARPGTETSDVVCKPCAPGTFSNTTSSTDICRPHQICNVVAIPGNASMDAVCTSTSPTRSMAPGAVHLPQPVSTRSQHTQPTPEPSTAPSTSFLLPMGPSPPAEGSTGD
- test protocol: BLI (Octet Red 96), CHO supernatant antibody on anti-human Fc biosensor, 100 nM monomeric human TNFR2 ECD, 1:1 model
endpoint: Kd (nM)
Please state the figure in nM; there is no need to write the unit.

Record excerpt, results attached:
hSBT-002d (antibody, V domains shown, Humanized SBT-002; VH fused to human IgG1 Fc null, VL to human Ck; Tested as CHO supernatant) VH: QVTLKESGPALVKPTQTLTLTCTFSGFSLSTSGMGVGWIRQPPGKALEWLAHIWWDDDKFYNPSLKSQLTISKDTSKNQVVLTMTNMDPVDTATYYCARITGTRYFDYWGQGTTVTVSS VL: DVQMTQSPSSLSASVGDRVTITCKASQDINKFIAWYQQKPGKAPKLLIHYTSTLQPGIPSRFSGSGSGRDYTFTISSLQPEDIATYYCLQYGNLWTFGGGTKVEIK; 1.73
hSBT-002b (antibody, V domains shown, Humanized SBT-002; VH fused to human IgG1 Fc null, VL to human Ck; Tested as CHO supernatant) VH: QVTLKESGPALVKPTQTLTLTCTFSGFSLSTSGMGVGWIRQPPGKALEWLAHIWWDDDKFYNPSLKSQLTISKDTSKNQVVLTMTNMDPVDTATYYCARITGTRYFDYWGQGTTVTVSS VL: DVQMTQSPSSLSASVGDRVTITCKASQDINKFIAWYQQKPGKAPKLLIHYTSTLQPGIPSRFSGSGSGTDFTFTISSLQPEDIATYYCLQYGNLWTFGGGTKVEIK; 2.44

# ---- query binder ----
Record hSBT-002e (antibody, V domains shown, Humanized SBT-002; VH fused to human IgG1 Fc null, VL to human Ck; Tested as CHO supernatant) VH: QVTLKESGPALVKPTQTLTLTCTFSGFSLSTSGMGVGWIRQPPGKALEWLAHIWWDDDKFYNPSLKSRLTISKDTSKNQVVLTMTNMDPVDTATYYCARLTGTRYFDYWGQGTTVTVSS VL: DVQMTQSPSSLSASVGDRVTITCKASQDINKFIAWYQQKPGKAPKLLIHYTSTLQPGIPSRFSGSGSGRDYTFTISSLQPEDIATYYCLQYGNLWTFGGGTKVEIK . Reported Kd: 1.54
